Every entry's value here was drawn from patent US20190359687A1.

Target: T1, Cynomolgus monkey recombinant glycophorin A ectodomain (Cynomolgus monkey)
T1 construct: extracellular domain
Test: ELISA, Fab on coated recombinant cyno GPA ectodomain
MEASUREMENT_LABEL: binding in ELISA relative to parental Fab

Recorded binding in ELISA relative to parental Fab for TPP-5836, Hu6C12-24 Fab variant VL: (S24R, A26S, S49A, P54Q, F95Y); VH: (I48M, L70M, T72R) (Fab, V domains shown, Built on the parental Fab TPP-4935) VH: EVQLVQSGAEVKKPGASVKVSCKASGYTFTTYTIHWVRQAPGQGLEWMGYINPSSDYTRYNPKFKDRVTMTRDKSTSTAYMELRSLRSDDTAVYYCQTGTRDYWGQGTTVTVSS VL: DIQLTQSPSFLSASVGDRVTITCRASSSVSYIYWFQQKPGKAPKLLIYATSTLQSGVPSRFSGSGSGTEYTLTISSLQPEDFATYYCHQRNSFPYTFGQGTKLEIKR , please?
1 relative to parental Fab

Recorded binding in ELISA relative to parental Fab for TPP-5676, Hu6C12-24 Fab variant VH: (I48M, D66G) (Fab, V domains shown, Built on the parental Fab TPP-4935) VH: EVQLVQSGAEVKKPGASVKVSCKASGYTFTTYTIHWVRQAPGQGLEWMGYINPSSDYTRYNPKFKGRVTLTTDKSTSTAYMELRSLRSDDTAVYYCQTGTRDYWGQGTTVTVSS VL: DIQLTQSPSFLSASVGDRVTITCSAASSVSYIYWFQQKPGKAPKLLIYSTSTLPSGVPSRFSGSGSGTEYTLTISSLQPEDFATYYCHQRNSFPFTFGQGTKLEIKR , please?
1.1 relative to parental Fab

Recorded binding in ELISA relative to parental Fab for TPP-5704, Hu6C12-24 Fab variant VL: (N91D) (Fab, V domains shown, Built on the parental Fab TPP-4935) VH: EVQLVQSGAEVKKPGASVKVSCKASGYTFTTYTIHWVRQAPGQGLEWIGYINPSSDYTRYNPKFKDRVTLTTDKSTSTAYMELRSLRSDDTAVYYCQTGTRDYWGQGTTVTVSS VL: DIQLTQSPSFLSASVGDRVTITCSAASSVSYIYWFQQKPGKAPKLLIYSTSTLPSGVPSRFSGSGSGTEYTLTISSLQPEDFATYYCHQRDSFPFTFGQGTKLEIKR , please?
1 relative to parental Fab
